System: excised human nerve tissue (or nerve extracts)
Test: Phage display library screening (Example 2), NEB tissue-binding peptides: nerve tissue and nerve extracts versus muscle
Conditions: unique sequence count, tissue target: excised nerve, peptides not binding muscle extracts
Classify by Count Excised Nerve. Ranges: interval 1: < 8; interval 2: ≥ 8 and < 10; interval 3: ≥ 10

Solved entries (count: 5):
INSERT INTO assay_data (chain, class) VALUES
  ('VRLPMLASMGHQ', 'interval 3'),
  ('HGIVFSKRPFSN', 'interval 3'),
  ('WPLKRFEQLPLK', 'interval 1'),
  ('AIMSYNSPWIQG', 'interval 2'),
  ('YSANSNPKKSLM', 'interval 3');

Inquiry: Which class holds MLRHVDLTEPNA ?
Reply text: interval 1

Inquiry: Which class holds QRATNDILIRGW ?
Reply text: interval 2

Inquiry: Which class holds GTALNLQKDINK ?
Reply text: interval 1

Inquiry: Which class holds TLNARDQLSING (nerve-binding peptide) ?
Reply text: interval 1

Inquiry: Which class holds SGEYNLIKPNLL ?
Reply text: interval 3

---

Biological target: Human Myelin Basic Protein (Homo sapiens, UniProt P02686)
Test: Phage display library screening (Example 2, Python script analysis), binding to Human Myelin Basic Protein
Parameters: Enzo 200-606-M001 from human; purchased Enzo 200-606-M001; host or cells: human brain (tissue-derived)
Conditions: R3 Myelin Basic Protein; combined unique sequence count, Python/R script analysis
Protocol: Phage display library screens were used to identify peptides that bind to target proteins (including specific laminin trimers) that are expressed in human nerves, as described in Table 3. These screens were also carried out to identify peptides that could bind selectively to nerves versus muscle. Such peptides could therefore be useful for systemic in-vivo labeling of nerves during fluorescence assisted surgery. […]
Sequence (P02686 134-304): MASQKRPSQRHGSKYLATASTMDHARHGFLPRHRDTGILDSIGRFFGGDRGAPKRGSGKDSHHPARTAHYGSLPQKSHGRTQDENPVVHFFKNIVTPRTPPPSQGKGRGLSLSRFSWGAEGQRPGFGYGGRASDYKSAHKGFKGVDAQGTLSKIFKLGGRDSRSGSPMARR
Please go through the items and note down their Count.
Answers are plain numbers.

Answered cases to consult:
INSERT INTO measurements (substance, measured_target, recorded_value) VALUES
  ('FDLLARK (R3 Myelin Basic Protein-binding peptide)', 'Human Myelin Basic Protein (Homo sapiens, UniProt P02686)', 6),
  ('EHGYYKV (R3 Myelin Basic Protein-binding peptide)', 'Human Myelin Basic Protein (Homo sapiens, UniProt P02686)', 17),
  ('AQFLTIY (R3 Myelin Basic Protein-binding peptide)', 'Human Myelin Basic Protein (Homo sapiens, UniProt P02686)', 6),
  ('VAHQRVS (R3 Myelin Basic Protein-binding peptide)', 'Human Myelin Basic Protein (Homo sapiens, UniProt P02686)', 8),
  ('SEGLTLL (R3 Myelin Basic Protein-binding peptide)', 'Human Myelin Basic Protein (Homo sapiens, UniProt P02686)', 6),
  ('HPWSHPN (R3 Myelin Basic Protein-binding peptide)', 'Human Myelin Basic Protein (Homo sapiens, UniProt P02686)', 6),
  ('MPLLELP (R3 Myelin Basic Protein-binding peptide)', 'Human Myelin Basic Protein (Homo sapiens, UniProt P02686)', 7),
  ('TIRVAHT (R3 Myelin Basic Protein-binding peptide)', 'Human Myelin Basic Protein (Homo sapiens, UniProt P02686)', 6),
  ('SNAERWR (R3 Myelin Basic Protein-binding peptide)', 'Human Myelin Basic Protein (Homo sapiens, UniProt P02686)', 9),
  ('WSLPLLS (R3 Myelin Basic Protein-binding peptide)', 'Human Myelin Basic Protein (Homo sapiens, UniProt P02686)', 7);

Field: Count. Fill in for each record below.
1. VGTFWTR (R3 Myelin Basic Protein-binding peptide)
2. ASNTSKG (R3 Myelin Basic Protein-binding peptide)
3. SLKTTNP (R3 Myelin Basic Protein-binding peptide)
4. ESPYPHS (R3 Myelin Basic Protein-binding peptide)
5. MNSPLAQ (R3 Myelin Basic Protein-binding peptide)
6. AAGQRSF (R3 Myelin Basic Protein-binding peptide)
7. RVIPSTT (R3 Myelin Basic Protein-binding peptide)
8. SSFYVAY (R3 Myelin Basic Protein-binding peptide)

Reply text:
1: 6; 2: 7; 3: 6; 4: 7; 5: 6; 6: 7; 7: 6; 8: 6

Field: Count. Fill in for each record below.
1. LPPQISR (R3 Myelin Basic Protein-binding peptide)
2. IGTRWHQ (R3 Myelin Basic Protein-binding peptide)
3. TPGRATL (R3 Myelin Basic Protein-binding peptide)
4. FLNQAPT (R3 Myelin Basic Protein-binding peptide)
5. MDLSLKP (R3 Myelin Basic Protein-binding peptide)

Reply text:
1. 8
2. 6
3. 6
4. 7
5. 10

---

Target: Human Myelin Basic Protein (Homo sapiens)
Test: phage display, NGS count
Sequence (P02686 135-304 limits assumed): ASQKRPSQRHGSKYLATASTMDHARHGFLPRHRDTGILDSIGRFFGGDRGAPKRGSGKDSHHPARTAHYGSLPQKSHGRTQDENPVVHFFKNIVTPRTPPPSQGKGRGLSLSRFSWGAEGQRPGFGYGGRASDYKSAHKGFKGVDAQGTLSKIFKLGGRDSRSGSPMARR
Please go through the items and note down their Count.
Numbers only.

Answered cases to consult:
INSERT INTO assay_data (substance, assay_metric, recorded_value) VALUES
  ('GPRVTPH (peptide)', 'Count', 6),
  ('GVAEVGL (peptide)', 'Count', 6),
  ('SIRMTEI (peptide)', 'Count', 7),
  ('HPWLGNR (peptide)', 'Count', 9);

Field: Count. Fill in for each record below.
1. IPIPYRT (peptide)
2. GRHTDVV (peptide)
3. AKFTMWV (peptide)
4. WSPRWPS (peptide)

Reply text:
1. 6
2. 6
3. 6
4. 7

---

Tested on: Laminin 421/521
Experiment: Phage display library screening (Example 2), NEB laminin-binding peptides
Design: species or system human
Conditions: Laminin 421/521, not 211 and 411; combined unique sequence count, Python/R script analysis
Please go through the items and note down their Count.

Answered cases to consult:
INSERT INTO assay_data (substance, recorded_value) VALUES
  ('CVLKCEDQKYRG (Laminin 421/521-binding peptide)', 27),
  ('GYDLSRLWGMAS (Laminin 421/521-binding peptide)', 39),
  ('SWHFTGTPFMNR (Laminin 421/521-binding peptide)', 28);

Field: Count. Fill in for each record below.
1. AQGVWWSEWFAP (Laminin 421/521-binding peptide)
2. GGGYHIFGPLVT (Laminin 421/521-binding peptide)
3. SFRNLEKLSLWS (Laminin 421/521-binding peptide)
4. GQPRNIHLPGTH (Laminin 421/521-binding peptide)
5. ETGGLAYGSGQK (Laminin 421/521-binding peptide)
6. SYTATWSEMSRS (Laminin 421/521-binding peptide)
7. SPDRTNWGWQTN (Laminin 421/521-binding peptide)

Reply text:
1: 42; 2: 43; 3: 50; 4: 40; 5: 28; 6: 28; 7: 29

Field: Count. Fill in for each record below.
1. DIMKSPRSNLRS (Laminin 421/521-binding peptide)
2. AWNGNRS (Laminin 421/521-binding peptide)
3. SNPKHVSSLGQM (Laminin 421/521-binding peptide)
4. SVVGWAAPRTAQ (Laminin 421/521-binding peptide)

Reply text:
1: 37; 2: 47; 3: 40; 4: 27

Field: Count. Fill in for each record below.
1. WGWNGANMSPRG (Laminin 421/521-binding peptide)
2. EAVSTQI (Laminin 421/521-binding peptide)
3. DSLYRGMHQPRI (Laminin 421/521-binding peptide)
4. CTKSPSNSC (Laminin 421/521-binding peptide)

Reply text:
31
27
29
58

Field: Count. Fill in for each record below.
1. GSGFRNEEHSAH (Laminin 421/521-binding peptide)
2. NDTGRHASGISK (Laminin 421/521-binding peptide)
3. VYRNGGGLPLTA (Laminin 421/521-binding peptide)
4. ALKIGPETTIYM (Laminin 421/521-binding peptide)
5. KFADTKLTSLRY (Laminin 421/521-binding peptide)

Reply text:
[51, 32, 34, 35, 28]

---

Biological target: Human Myelin PLP (human)
Assay: phage display, NGS count
Please go through the items and note down their Count.
One number for each entry.

INSERT INTO assay_data (substance, assay_metric, recorded_value) VALUES
  ('ATLKPYR (peptide)', 'Count', 68),
  ('EVLYPNN (peptide)', 'Count', 27),
  ('HQGSRTY (peptide)', 'Count', 53);

Field: Count. Fill in for each record below.
1. SALISTR (peptide)
2. QRRSVIL (peptide)
3. IIPPTSV (peptide)
4. GNVFQTS (peptide)
5. SVMWMTP (peptide)
6. FRIDKSM (peptide)

Reply text:
[32, 31, 31, 31, 29, 26]

Field: Count. Fill in for each record below.
1. RFELPAP (peptide)
2. LTHHFAP (peptide)
3. IDRVRGL (peptide)
4. YSQAISA (peptide)

Reply text:
[52, 40, 29, 27]

Field: Count. Fill in for each record below.
1. HKAPLGT (peptide)
2. VTPNKAR (peptide)
3. YSSRLTA (peptide)
4. TNPWKPH (peptide)

Reply text:
[29, 26, 29, 62]

Field: Count. Fill in for each record below.
1. TTTIADM (peptide)
2. TFPERLR (peptide)
3. SAQSRSF (peptide)
4. LMQKPSI (peptide)
5. LPSHASI (peptide)
6. VFPERRV (peptide)

Reply text:
1. 26
2. 31
3. 26
4. 29
5. 26
6. 28

Field: Count. Fill in for each record below.
1. LNGISAL (peptide)
2. KGVIPAT (peptide)
3. LPVKNLL (peptide)
4. GLWGPSL (peptide)
5. EPSSFTF (peptide)

Reply text:
1: 32; 2: 27; 3: 26; 4: 26; 5: 31

Inquiry: Give the measured Count for SVVYQNS (peptide)
Reply text: 26
